# tested_target: VEGFR-1 Fc chimera (UniProt P17948 27-758)
# Sequence (P17948 27-758, change not shown): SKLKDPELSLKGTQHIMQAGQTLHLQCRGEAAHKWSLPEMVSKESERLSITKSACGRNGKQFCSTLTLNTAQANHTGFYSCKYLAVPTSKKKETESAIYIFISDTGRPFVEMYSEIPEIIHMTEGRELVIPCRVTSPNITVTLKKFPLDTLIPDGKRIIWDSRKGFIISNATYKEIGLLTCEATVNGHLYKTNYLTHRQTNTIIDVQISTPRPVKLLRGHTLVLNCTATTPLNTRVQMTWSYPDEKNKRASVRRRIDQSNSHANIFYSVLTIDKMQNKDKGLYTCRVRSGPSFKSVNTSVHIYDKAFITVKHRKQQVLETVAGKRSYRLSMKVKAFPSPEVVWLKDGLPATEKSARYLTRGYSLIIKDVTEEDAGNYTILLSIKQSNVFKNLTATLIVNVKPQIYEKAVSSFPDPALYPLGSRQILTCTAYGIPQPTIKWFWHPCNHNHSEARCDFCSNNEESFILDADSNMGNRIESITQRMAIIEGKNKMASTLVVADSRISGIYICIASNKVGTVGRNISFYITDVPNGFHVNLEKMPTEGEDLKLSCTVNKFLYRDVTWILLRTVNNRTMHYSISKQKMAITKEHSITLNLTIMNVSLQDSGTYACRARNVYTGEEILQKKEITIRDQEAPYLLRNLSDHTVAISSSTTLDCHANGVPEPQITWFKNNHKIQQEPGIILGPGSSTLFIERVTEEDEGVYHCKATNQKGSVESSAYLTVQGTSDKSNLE
# assay_details: SPR
reported_property: Kd

{"binder": "GTCGTGTTTGTTGTTGTTTTCATTTTTGCGGCCC (structured_DNA) [Apt01]", "reported_property": "Kd", "endpoint_result": "3.3 nM"}
